These data points were gathered from ChEMBL document CHEMBL1201862.

Tested on: SNB-75
Experiment: NCI tumour cell line growth inhibition, 48 h
Activity calls are given as the source filed them. Rule as the data show it: active = GI50 up to about 1.1 µM and inactive = higher.
Recorded GI50 values for a group of molecules are listed next.
outcome-measure: GI50

1. COc1ccc(NC(=S)c2ccc([N+](=O)[O-])o2)cc1    3.19 µM (inactive)
2. CCCC(=O)OCC(COC(=O)CCC)OC(=O)CCC    36.7 µM (inactive)
3. CC(C)NC(=O)OCc1nnn2c1CCC2    > 100 µM (inactive)
4. CC[C@@H]1CC[C@@H]2[C@H](CC[C@]3(C)[C@@H](OS(=O)(=O)c4ccc(C)cc4)CC[C@@H]23)[C@H]1CO    91 µM (inactive)
5. COC1C2C=CC(C2)[C@H]1[N+](=O)[O-] (some centres not stated)    > 100 µM (inactive)
6. c1ncc(C23C4C5C6C4C2C6C53)[nH]1 (configuration not stated)    > 100 µM (inactive)
7. COc1c(Cl)cc(NC(=S)C#N)cc1Cl    22.5 µM (inactive)
